# MEASURED_ON: CDK9 (Homo sapiens)
# Sequence (P50750 whole entry): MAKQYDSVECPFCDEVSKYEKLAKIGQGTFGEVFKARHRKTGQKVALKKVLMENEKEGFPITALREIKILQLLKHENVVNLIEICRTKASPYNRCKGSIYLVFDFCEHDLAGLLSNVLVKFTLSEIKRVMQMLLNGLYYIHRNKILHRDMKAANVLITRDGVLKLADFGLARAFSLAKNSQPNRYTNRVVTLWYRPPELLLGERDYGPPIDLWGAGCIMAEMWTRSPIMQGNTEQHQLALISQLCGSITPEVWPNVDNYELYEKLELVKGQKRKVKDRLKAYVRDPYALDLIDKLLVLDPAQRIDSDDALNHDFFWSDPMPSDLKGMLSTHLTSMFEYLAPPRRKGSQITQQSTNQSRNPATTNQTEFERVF
# Sequence (O60563 whole entry partner): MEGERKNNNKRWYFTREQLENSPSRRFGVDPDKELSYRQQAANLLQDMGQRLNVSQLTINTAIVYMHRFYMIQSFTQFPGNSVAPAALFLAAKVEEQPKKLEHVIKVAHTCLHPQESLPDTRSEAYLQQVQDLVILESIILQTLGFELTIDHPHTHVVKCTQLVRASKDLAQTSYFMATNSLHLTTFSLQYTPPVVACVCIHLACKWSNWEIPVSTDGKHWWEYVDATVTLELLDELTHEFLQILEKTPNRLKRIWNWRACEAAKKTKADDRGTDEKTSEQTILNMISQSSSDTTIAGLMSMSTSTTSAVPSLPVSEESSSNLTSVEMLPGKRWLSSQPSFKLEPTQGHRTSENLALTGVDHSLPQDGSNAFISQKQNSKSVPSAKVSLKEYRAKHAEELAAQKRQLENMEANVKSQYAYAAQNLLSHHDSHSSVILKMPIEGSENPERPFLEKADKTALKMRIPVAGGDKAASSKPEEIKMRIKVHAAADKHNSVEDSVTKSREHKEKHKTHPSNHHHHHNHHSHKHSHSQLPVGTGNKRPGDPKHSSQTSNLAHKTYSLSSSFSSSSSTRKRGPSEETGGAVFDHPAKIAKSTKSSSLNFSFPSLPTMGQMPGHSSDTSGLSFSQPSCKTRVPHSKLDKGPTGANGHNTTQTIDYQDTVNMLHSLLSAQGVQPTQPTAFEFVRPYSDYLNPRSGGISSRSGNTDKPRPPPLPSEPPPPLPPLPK
# PROCEDURE_SUMMARY: CDK9 kinase activity inhibition (ADP-Glo)
# Type: biochemical
# TEST_CONDITIONS: 10 μM ATP, 2 h at room temperature
OUTCOME_MEASURE: IC50 (nM)

P: CCOc1ccnc(Nc2ccc(C)c(C(=O)N3CC(F)(F)CC[C@@H]3CNC(=O)OC(C)(C)C)n2)c1
Q: CC(=O)N(C)C[C@H]1CCC(F)(F)CN1C(=O)c1nc(Nc2cc(OC(F)(F)F)ccn2)ccc1C
R: CC(=O)NC[C@H]1CCC(F)(F)CN1C(=O)c1nc(Nc2cc(Cl)ccn2)ccc1C
// sort listed items: IC50 descending List the labels, following the order given in the request. P, Q, R

Provenance of the data: patent US12729192B2
